# Test system: Nucleic Acid
# assay.details: poly(d(A-T)2) binding affinity is measured as change in DNA melting temperature
# Assay type: nucleic-acid assay
measured.property: delta Tm
Quote the value and follow it with the unit of measurement.

> print(dat)
                           smiles.structure   result
1  N=C(Nc1ccc2c(c1)Cc1cc(NC(=N)c3ccccc3)ccc1-2)c1ccccc1    22 °C
2  CC/N=C(/N)Nc1ccc2c(c1)Cc1cc(N/C(N)=N\CC)ccc1-2    10 °C
3  C/N=C(/N)Nc1ccc2c(c1)Cc1cc(N/C(N)=N\C)ccc1-2  10.1 °C
4    N=C(N)Nc1ccc2c(c1)Cc1cc(NC(=N)N)ccc1-2  13.6 °C

Lab note: next compound to report on.
Query block: So what delta Tm did N=C(N)c1ccc(-c2ccc(-c3ccc(C(=N)N)cc3)o2)cc1 get with Nucleic Acid?
Result block: 25 °C

----------
What delta Tm was measured for each of the following?
# Tested on: Nucleic Acid
# assay.details: poly(d(A-T)2) binding affinity is measured as change in DNA melting temperature
# Type: nucleic-acid assay
State the result as a value with its unit after it.

> print(dat)
                                   molecule        system  result
1  CC(C)/N=C(/N)Nc1ccc2c(c1)Cc1cc(N/C(N)=N\C(C)C)ccc1-2  Nucleic Acid  9.3 °C

Hi there! I need delta Tm for each item below, if you can.
1. N=C(N)c1ccc(OCCCCCOc2ccc(C(=N)N)cc2)cc1 [PENTAMIDINE]
2. N=C(Nc1ccc2c(c1)Cc1cc(NC(=N)c3ccccn3)ccc1-2)c1ccccn1
3. N=C(N)Nc1ccc2c(c1)C(=O)c1cc(NC(=N)N)ccc1C2=O
4. N=C(N)Nc1ccc2c(c1)C(=O)c1cc(NC(=N)N)ccc1-2

Result block:
12.6 °C
15.2 °C
7.2 °C
6.1 °C

----------
What pIC50 was measured for each of the following?
# Tested on: Trypanosoma brucei rhodesiense
# assay.details: In vitro antiprotozoal activity against Trypanosoma brucei rhodesiense strain STIB900
# Format: functional, organism-based
One number for each entry, as −log10 of the molar value.

> print(dat)
                           smiles.structure  measured.property  number
1  N=C(Nc1ccc2c(c1)Cc1cc(NC(=N)c3ccccc3)ccc1-2)c1ccccc1              pIC50    6.53
2  CC/N=C(/N)Nc1ccc2c(c1)Cc1cc(N/C(N)=N\CC)ccc1-2              pIC50    7.77
3  C/N=C(/N)Nc1ccc2c(c1)Cc1cc(N/C(N)=N\C)ccc1-2              pIC50    7.90

Need pIC50 for each of these compounds.
1. CC/N=C(/NC(=O)OCC)Nc1ccc2c(c1)Cc1cc(/N=C(/NCC)NC(=O)OCC)ccc1-2
2. N=C(N)Nc1ccc2c(c1)C(=O)c1cc(NC(=N)N)ccc1-2
3. N=C(N)c1ccc(OCCCCCOc2ccc(C(=N)N)cc2)cc1
4. CCOC(=O)NC(=N)Nc1ccc2c(c1)C(=O)c1cc(NC(=N)NC(=O)OCC)ccc1-2
5. CONC(=N)Nc1ccc2c(c1)Cc1cc(NC(=N)NOC)ccc1-2
6. CCOC(=O)NC(=N)Nc1ccc2c(c1)Cc1cc(NC(=N)NC(=O)OCC)ccc1-2
7. CCOC(=O)N/C(=N/C(C)C)Nc1ccc2c(c1)Cc1cc(N/C(=N\C(C)C)NC(=O)OCC)ccc1-2
8. N=C(N)Nc1ccc2c(c1)C(=O)c1cc(NC(=N)N)ccc1C2=O

Result block:
1: 5.10; 2: 8.14; 3: 8.64; 4: 4.89; 5: 4.32; 6: 6.09; 7: 5.60; 8: 6.89

Count: 4. Required value per item: pIC50.
1. CC(C)/N=C(/N)Nc1ccc2c(c1)Cc1cc(N/C(N)=N\C(C)C)ccc1-2
2. CCOC(=O)N/C(=N/C)Nc1ccc2c(c1)Cc1cc(N/C(=N\C)NC(=O)OCC)ccc1-2
3. N=C(Nc1ccc2c(c1)Cc1cc(NC(=N)c3ccccn3)ccc1-2)c1ccccn1
4. CC(C)CONC(=N)Nc1ccc2c(c1)Cc1cc(NC(=N)NOCC(C)C)ccc1-2

Result block:
1: 7.39; 2: 5.54; 3: 6.05; 4: 4.67
